Catalogue of compounds with associated GI50
Test system: M19-MEL
Test: NCI tumour cell line growth inhibition, 48 h
Calls of active or inactive are those of the source. Cut-off read from the data, not from the text of the source: active = GI50 up to about 1.1 µM and inactive = higher.

Compound	Tested system	GI50
Cc1ccccc1SC(/C=C/NNC1=NN=C(c2ccccc2)C(c2ccccc2)N1)c1ccccc1 (stereo not given)	M19-MEL	26 µM (inactive)
C[Si](C)(C)C1(Sc2ccccc2)SCCCS1	M19-MEL	34 µM (inactive)
COc1cc2c(c3c1C=CCO3)C(=O)c1ccccc1C2=O	M19-MEL	76.6 µM (inactive)
N#CN=C(NCc1ccccc1)NCc1ccccc1	M19-MEL	> 54.7 µM (inactive)
CC(=O)Oc1c(C)n(CCCl)ccc1=O	M19-MEL	> 100 µM (inactive)
O=C(O)OC12CCCCCC1C(=O)C1CCCCC12 (stereo not given)	M19-MEL	> 100 µM (inactive)
CCc1cccc(C)c1NC(=O)CCc1nnc2s/c(=C\c3cccc4ccccc34)c(=O)n12	M19-MEL	> 100 µM (inactive)
COc1cc2c(oc(=O)c3cc4cc([Si](C)(C)C)oc4c(OC)c32)c2cccc(O)c12	M19-MEL	> 100 µM (inactive)
COc1ccc(C[C@H](N)C(=O)N2C[C@@H](CO)C[C@@H](n3cnc4c(N(C)C)ncnc43)C2)cc1	M19-MEL	> 100 µM (inactive)
Cc1ccc(-c2cc(=O)c3cc(C)c(C)c(C(=O)O)c3o2)cc1[N+](=O)[O-]	M19-MEL	> 100 µM (inactive)
c1ccc2c(CNCCCN3CCN(CCCNCc4cccc5ccccc45)CC3)cccc2c1	M19-MEL	1.89 µM (inactive)
O=C(CCN1CCCC1)CC(c1ccccc1)c1c(O)c2ccccc2oc1=O (stereo not given)	M19-MEL	> 100 µM (inactive)
CSc1cnc2ccccc2c1Sc1c[nH]c2ccccc2c1=O	M19-MEL	5.22 µM (inactive)
O=C(O)CCC(N/C=C1/N=C(c2ccccc2)OC1=O)C(=O)O (stereo not given)	M19-MEL	> 100 µM (inactive)
C1CN(c2nnc(N3CCC3)nn2)C1	M19-MEL	15.1 µM (inactive)
COc1ccc(Cc2c(=O)[nH]nc3ccccc23)cc1	M19-MEL	> 100 µM (inactive)
COc1ccc(NC(=S)NNC(=O)c2nsc3ccccc23)cc1	M19-MEL	33 µM (inactive)
CC(=O)OCC1(C)C(OC(C)=O)CCC2(C)C(CC(OC(C)=O)C3=CCOC3=O)C(O)(CO)CCC12 (stereo not given)	M19-MEL	> 100 µM (inactive)
Cc1cccc(C(C)(C)C)c1NC(=O)CC1Sc2ccccc2NC1=O (stereo not given)	M19-MEL	66.8 µM (inactive)
CC(=O)NC(CCCN(Cc1ccccc1)C(=O)N(C)N=O)C(=O)NCc1ccccc1 (stereo not given)	M19-MEL	> 100 µM (inactive)

----------
Tested on: SNB-19
Assay: NCI tumour cell line growth inhibition, 48 h
Calls of active or inactive are those of the source. Rule as the data show it: active = GI50 up to about 1.1 µM and inactive = higher.
Outcomes: active, inactive

Compound	Label value
CSc1nc(SC)c2ncn(C3CC(Oc4ccc(C)cc4)C(COc4ccc(C)cc4)O3)c2n1 (centres undefined)	inactive
Cc1cccc(C(C)(C)C)c1NC(=O)CC1Sc2ccccc2NC1=O (centres undefined)	inactive
O=C(CSCC(=O)N/N=C\c1ccc(O)c(O)c1O)N/N=C\c1ccc(O)c(O)c1O	inactive
CC(=O)NC1C(OCc2ccccc2)OC(CO)C(O)C1OCC(=O)N1CCCC1C(=O)NC(CCC(=O)NCCCCCNc1c2ccccc2nc2cccc([N+](=O)[O-])c12)C(N)=O (centres undefined)	active
Oc1c(Br)cc(/C=C/c2cccc(/C=C/c3cc(Br)c(O)c(Br)c3)n2)cc1Br	inactive
Cc1cn(C2CC(O)C(Cn3cc(Cn4nc(Br)c(=O)[nH]c4=O)nn3)O2)c(=O)[nH]c1=O (centres undefined)	inactive
Cc1c(C)c(S(=O)(=O)N(CCCCCN)OCCCN)c(C)c2c1OC(C)(C)CC2	inactive
CCCOC(=O)C1CCC(=O)N1C(=O)C(Cl)Cl (centres undefined)	inactive
C1CN(c2nnc(N3CCC3)nn2)C1	inactive

----------
Test system: HCT-116
Assay: NCI tumour cell line growth inhibition, 48 h
Active and inactive are the calls of the source. Rule as the data show it: active = GI50 up to about 1.1 µM and inactive = higher.
Outcomes: yes (1) = active, no (0) = inactive

Compound	Tested system	Label value
CC(=O)O[C@H]1CCC2[C@@H]3CCC4Nc5oncc5C[C@]4(C)C3CC[C@@]21C (stereo partly specified)	HCT-116	no (0)
CCOC(=O)C1=NN(c2ccc(C)cc2)C2(c3ccccc3)C=C(c3ccccc3)N(C)CCN12 (stereo unspecified)	HCT-116	no (0)
O=C(NCCCCCCNC(=O)n1cc(F)c(=O)[nH]c1=O)NCCCOCCOCCOCCOCCOCCOCCOCCOCCOCCOCCOCCOCCOCCOCCOCCOCCOCCOCCOCCOCCOCCCNC(=O)C(O)C(O)C(O)C(O)CO (stereo unspecified)	HCT-116	no (0)
CCC(=O)n1c(=O)n(-c2ccc([N+](=O)[O-])cc2)c(=O)n1C(=O)CC	HCT-116	no (0)
CC(C)(/N=N/C(C)(C)C1=NCCN1)C1=NCCN1	HCT-116	no (0)
COC1(OC)CCN(Cc2ccccc2)C1=O	HCT-116	no (0)
C1CNCCNCCNCCN1	HCT-116	no (0)
CN(C)C(=O)/N=C1\SC(=N\c2ccccc2)/C(=N/c2ccccc2)N1c1ccc([N+](=O)[O-])cc1	HCT-116	no (0)
COC(=O)Nc1nc2cc(Oc3ccc4nc(NC(=O)OC)[nH]c4c3)ccc2[nH]1	HCT-116	yes (1)
O=C(O)OC12CCCCCC1C(=O)C1CCCCC12 (stereo unspecified)	HCT-116	no (0)
COc1ccc2c(c1)OCC1Cc3cccc(OC)c3OC21 (stereo unspecified)	HCT-116	no (0)
CCCCCCCCCCCC(=O)Oc1c(Cl)cc(Cl)c(OC(=O)C(=O)Oc2c(Cl)cc(Cl)c(OC(=O)CCCCCCCCCCC)c2Cl)c1Cl	HCT-116	no (0)
C=CCN1C[C@H](C)N([C@H](c2ccc(C(=O)N(CC)CCO)cc2)c2cccc(OC)c2)C[C@H]1C	HCT-116	no (0)
CC(=O)NC(CS/N=N/c1[nH]cnc1C(N)=O)C(=O)O (stereo unspecified)	HCT-116	no (0)
O=C1COc2cc3c(cc2N1)SCCC(=O)N3	HCT-116	no (0)
O=C1/C(=C/c2c(Cl)[nH]c3ccccc23)c2ccccc2N1c1ccccc1	HCT-116	no (0)
O=C(CC1(O)C(=O)Nc2ccccc21)c1ccco1 (stereo unspecified)	HCT-116	no (0)
C[N+](C)(C)C1(C(=O)[O-])CC1	HCT-116	no (0)
Cn1c(=O)oc2cc(C(O)CN3CCN(Cc4ccc5c(c4)OCO5)CC3)ccc21 (stereo unspecified)	HCT-116	no (0)
Oc1c(Br)cc(/C=C/c2cccc(/C=C/c3cc(Br)c(O)c(Br)c3)n2)cc1Br	HCT-116	no (0)
CCCOC(=O)C1CCC(=O)N1C(=O)C(Cl)Cl (stereo unspecified)	HCT-116	no (0)

----------
System: 786-0
Assay: NCI tumour cell line growth inhibition, 48 h
Activity calls are given as the source filed them. Rule as the data show it: active = GI50 up to about 1.1 µM and inactive = higher.
Outcomes: 1.0 (active), 0.0 (inactive)

Molecule	Label value
Brc1ccc(/N=C/C=C(\Nc2ccc(Br)cc2)C23CC4CC(CC(C4)C2)C3)cc1	0.0
O=C(NCC(O)CNC(=O)C(F)(F)F)C(F)(F)F	0.0
Cc1ccccc1SC(/C=C/NNC1=NN=C(c2ccccc2)C(c2ccccc2)N1)c1ccccc1 (stereo not given)	0.0
COc1ccc(/C(Cl)=C(\C=O)c2ccc([N+](=O)[O-])cc2)cc1OC	0.0
COC(=O)Nc1nc2cc(Oc3ccc4nc(NC(=O)OC)[nH]c4c3)ccc2[nH]1	1.0

----------
Tested on: SN12C
Test: NCI tumour cell line growth inhibition, 48 h
Calls of active or inactive are those of the source. No stated cut-off is given here; in the data, active = GI50 up to about 1.1 µM and inactive = higher.

Compound	GI50
COc1ccc2c(c1)[C@@]13CCN4CC5=CCO[C@H]6CC(=O)N2[C@H]1[C@H]6[C@H]5C[C@H]43	> 100 µM (inactive)
N#Cc1c(-c2ccc([N+](=O)[O-])cc2)cc(-c2ccc(Nc3ccnc4cc(C(F)(F)F)ccc34)cc2)[nH]c1=O	> 100 µM (inactive)
Nc1ccc(/N=N\c2ccc(-c3ccc(O)cc3)cc2)c2ccc(S(=O)(=O)O)cc12	> 100 µM (inactive)
OCC1c2ccccc2-n2nc(-c3ccccc3)c(O)c21 (stereo not drawn)	17.6 µM (inactive)
[N-]=[N+]=CC(=O)CCC(N)C(=O)O (stereo not drawn)	2.77 µM (inactive)
CC(=O)O[C@H]1CCC2[C@@H]3CCC4Nc5oncc5C[C@]4(C)C3CC[C@@]21C (stereo partly drawn)	> 10 µM (inactive)
CN1C(=O)N/C(=C\c2ccc(S(=O)(=O)NN)cc2)C1=O	> 100 µM (inactive)
O=C(O)CN1CCN2CCOCCOCCN(CC1)CCN(CC(=O)O)CC2	> 100 µM (inactive)
CS(=O)(=O)OCC1OC(n2ccc(NC(=O)c3ccccc3)nc2=O)CC1OS(C)(=O)=O (stereo not drawn)	> 100 µM (inactive)
CCOC(=O)C12C(C(=O)OC)=C(C)N(NC(=O)Nc3ccccc3)C1(N)N(NC(=O)Nc1ccccc1)C(C)=C2C(=O)OC (stereo not drawn)	> 61.5 µM (inactive)
CC(C)(/N=N/C(C)(C)C1=NCCN1)C1=NCCN1	> 78.5 µM (inactive)
COc1cc2c(cc1O)NC(=O)[C@@H]1C[C@@H](O)CN1C2=O	> 100 µM (inactive)
CC(=O)NC(CS/N=N/c1[nH]cnc1C(N)=O)C(=O)O (stereo not drawn)	3.21 µM (inactive)
